Target: MC4 (Homo sapiens, UniProt P32245)
Sequence (P32245 whole entry): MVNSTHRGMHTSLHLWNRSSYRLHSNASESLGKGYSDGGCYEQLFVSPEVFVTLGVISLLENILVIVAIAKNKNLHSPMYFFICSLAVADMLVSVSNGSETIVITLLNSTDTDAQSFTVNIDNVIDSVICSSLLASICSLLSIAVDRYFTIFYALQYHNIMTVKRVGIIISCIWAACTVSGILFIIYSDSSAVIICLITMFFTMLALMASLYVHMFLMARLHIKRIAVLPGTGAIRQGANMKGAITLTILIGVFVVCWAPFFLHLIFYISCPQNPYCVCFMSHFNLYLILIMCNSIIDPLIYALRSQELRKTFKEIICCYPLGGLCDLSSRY
Test: Functional agonist assay in HEK 293 cells stably expressing melanocortin receptor (luciferase reporter / whole cell cAMP accumulation)
Details: agonist potency; concentration giving half maximal stimulation
READOUT TYPE: EC50 (µM)

[[record]]
molecule = "CN1CCC(CC2CCCCC2)(N2CCN(C(=O)[C@@H](Cc3ccc(Cl)cc3)NC(=O)CC3NCc4ccccc43)CC2)CC1 (stereo partly drawn) [Example 10I]"
units_symbol = "µM"
observed_measurement = 0.0254


a: CN1CCC(Cc2ccccc2F)(N2CCN(C(=O)[C@@H](Cc3ccc(Cl)cc3)NC(=O)CC3NCc4ccccc43)CC2)CC1 (stereo partly drawn)
b: CC(C)CC1(N2CCN(C(=O)[C@@H](Cc3ccc(Cl)cc3)NC(=O)CC3NCc4ccccc43)CC2)CCCC1 (stereo partly drawn)
Request: Of a and b , which shows the smaller EC50 value? Answer by quoting the chosen item's label.
Response: a
(a: 0.0189 µM, b: 0.0998 µM)

Numbers sourced from patent US7314879B2.
